The values you see were collected from patent US4952565A.

Experiment: In vitro diffusion/resorption test, Stricker method, Sartorius model
Format: in vitro ADME
Conditions: not told; pH 3.0, average of 4 tests; read-out: In vitro diffusion rate constant (kd) (converted)
parameter: Papp (×10⁻⁶ cm/s)
Numeric answer only, unit ×10⁻⁶ cm/s assumed.

Quick one: Papp for CC(C)Cc1ccc(C(C)C(=O)NO)cc1 (stereo not shown) ?
238

---

Assay: In vitro diffusion/resorption test, Stricker method, Sartorius model
Assay type: in vitro ADME
Conditions: not told; pH 6.0, average of 4 tests; read-out: In vitro diffusion rate constant (kd) (converted)
parameter: Papp (×10⁻⁶ cm/s)
Numeric answer only, unit ×10⁻⁶ cm/s assumed.

Quick one: Papp for CC(C)Cc1ccc(C(C)C(=O)NO)cc1 (stereo not shown) ?
233
